Target or test system: Recombinant human his-tagged IGF 1R extracellular domain protein (human) (UniProt P08069)
Test method notes: SPR, captured antibody, pH 7.4
Parameter measured: koff (s⁻¹)

Binder	Parameter measured	Quantitative result
VRDN-03109 (antibody, V domains shown) VH: QVQLVESGGGVVQPGRSLRLSCAASGFTFSSYSMHWVRQAPGKGLEWVAIIWFDGSSKYYPGSVKGRFTISRDNSKNTLYLQMNSLRAEDTAVYYCARELGRRYFDIWGRGTLVTVSS VL: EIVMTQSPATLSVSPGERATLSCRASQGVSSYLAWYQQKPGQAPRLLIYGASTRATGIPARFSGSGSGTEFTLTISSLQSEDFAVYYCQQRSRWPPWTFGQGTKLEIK	koff	0.000286
VRDN-03049 (antibody, V domains shown) VH: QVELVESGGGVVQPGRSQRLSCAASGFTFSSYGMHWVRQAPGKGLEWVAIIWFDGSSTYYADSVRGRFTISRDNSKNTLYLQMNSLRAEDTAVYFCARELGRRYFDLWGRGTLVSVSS VL: EIVLTQSPATLSLSPGERATLSCRASQSVSSYLAWYQQKPGQAPRLLIYHASKRATGIPARFSGSGSGTDFTLTISSLEPEDFAVYYCQQRSKWPPWTFGQGTKVESK	koff	0.000183
VRDN-03100 (second entry of that label; VH and VL pair SEQ ID NO: 223) (antibody, V domains shown) VH: QVQLVESGGGVVQPGRSLRLSCAASGFTFSSYSMHWVRQAPGKGLEWVAIIWFDGSSKYYPGSVKGRFTISRDNSKNTLYLQMNSLRAEDTAVYYCARELGRRYFDIWGRGTLVTVSS VL: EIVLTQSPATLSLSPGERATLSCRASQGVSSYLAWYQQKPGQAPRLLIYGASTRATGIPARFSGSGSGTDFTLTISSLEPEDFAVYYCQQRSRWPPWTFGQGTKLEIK	koff	0.00134
VRDN-03119 (antibody, V domains shown) VH: EVQLVESGGGVVQPGRSLRLSCAASGFTFSSYSMHWVRQAPGKGLEWVAIIWFDGSEKYYVDSVKSRFTISRDNSKNTLYLQMNSLRAEDTAVYYCARELGRRYFDIWGQGTLVTVSS VL: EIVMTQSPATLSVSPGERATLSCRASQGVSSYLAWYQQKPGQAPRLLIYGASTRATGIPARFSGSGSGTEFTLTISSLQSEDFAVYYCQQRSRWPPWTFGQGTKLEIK	koff	0.00153
